- target entity: human JAK1 (a.a. 837-1142)
- assay summary: In vitro JAK kinase assay (HTRF, phosphorylation of a biotinylated peptide), JAK1
- Format: biochemical
- study conditions: ratio of JAK2 IC50 to JAK1 IC50, measured at 1 mM ATP
What IC50 Ratio JAK2/JAK1 was measured for each of the following?

Previously resolved entries follow.
[[record]]
compound = "N#CCC1(n2cc(-c3ncnc4[nH]ccc34)cn2)CN(C2CC3CCC(C2)N3C(=O)c2ccc(C(F)(F)F)nc2)C1 (stereo not shown)"
result_value = 3.5

[[record]]
compound = "N#CCC1(n2ccc(-c3ncnc4[nH]ccc34)c2)CN(C2CCN(C(=O)c3cccc(C#N)c3)CC2)C1"
result_value = 7.4

[[record]]
compound = "N#CCC1(n2ccc(-c3ncnc4[nH]ccc34)c2)CN(C2CCN(C(=O)c3ccnc(C(F)(F)F)c3F)CC2)C1"
result_value = 20.8

[[record]]
compound = "N#CCC1(n2cc(-c3ncnc4[nH]ccc34)cn2)CN(C2CCN(C(=O)c3ccc(-c4ccc5cccnc5c4)c(F)c3)CC2)C1"
result_value = 6.7

[[record]]
compound = "N#CCC1(n2cc(-c3ncnc4[nH]ccc34)cn2)CN(C2CCN(C(=O)c3c(F)c(F)cc(F)c3F)CC2)C1"
result_value = 8.8

[[record]]
compound = "N#CCC1(n2cc(-c3ncnc4[nH]ccc34)cn2)CN(C2CCN(Cc3c(F)cccc3Cl)CC2)C1"
result_value = 7.9


input: Entry `N#CCC1(n2ccc(-c3ncnc4[nH]ccc34)c2)CN(C2CCN(C(=O)Nc3ccc(Cl)cc3C#N)CC2)C1` needs its IC50 Ratio JAK2/JAK1 filled in; supply it.
output: 3.4

* * *

# Jak2 (a.a. 828-1132) (Homo sapiens (Human), UniProt O60674): IC50 values follow
# Sequence (O60674 828-1132): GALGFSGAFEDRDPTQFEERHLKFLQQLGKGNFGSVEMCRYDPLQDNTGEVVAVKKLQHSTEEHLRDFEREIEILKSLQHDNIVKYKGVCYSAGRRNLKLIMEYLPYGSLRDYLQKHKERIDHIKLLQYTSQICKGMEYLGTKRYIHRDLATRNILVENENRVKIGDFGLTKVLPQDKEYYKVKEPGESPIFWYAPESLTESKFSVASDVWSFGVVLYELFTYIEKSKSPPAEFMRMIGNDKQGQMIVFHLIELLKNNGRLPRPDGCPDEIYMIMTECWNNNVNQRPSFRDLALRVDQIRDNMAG

[[record]]
compound = "COc1ncccc1NC(=O)N1CCC(N2CC(CC#N)(n3cc(-c4ncnc5[nH]ccc45)cn3)C2)CC1"
target_entity = "Jak2 (a.a. 828-1132) (Homo sapiens (Human), UniProt O60674)"
result_value = "10 to 50 nM"

[[record]]
compound = "N#CCC1(n2cc(-c3ncnc4[nH]ccc34)cn2)CN(C2CCN(C(=O)c3cccc(OC(F)(F)F)c3)CC2)C1"
target_entity = "Jak2 (a.a. 828-1132) (Homo sapiens (Human), UniProt O60674)"
result_value = "10 to 50 nM"

[[record]]
compound = "N#CCC1(n2cc(-c3ncnc4[nH]ccc34)cn2)CN(C2CCN(C(=O)OCC3CCC3)CC2)C1"
target_entity = "Jak2 (a.a. 828-1132) (Homo sapiens (Human), UniProt O60674)"
result_value = "10 to 50 nM"

[[record]]
compound = "N#CCC1(n2cc(-c3c(F)cnc4[nH]ccc34)cn2)CN(C2CCN(C(=O)c3cc(F)cc(C#N)c3)CC2)C1"
target_entity = "Jak2 (a.a. 828-1132) (Homo sapiens (Human), UniProt O60674)"
result_value = "10 to 50 nM"

[[record]]
compound = "N#CCC1(n2cc(-c3ncnc4[nH]ccc34)cn2)CN(C2CCN(C(=O)C3CCC(C(F)(F)F)CC3)CC2)C1 (stereo not shown)"
target_entity = "Jak2 (a.a. 828-1132) (Homo sapiens (Human), UniProt O60674)"
result_value = "50 to 100 nM"


Return reported IC50 values for all items listed beneath this line.
1. N#CCC1(n2cc(-c3ncnc4[nH]ccc34)cn2)CN(C2CCN(C(=O)Nc3ccc(Cl)cc3F)CC2)C1
2. CS(=O)(=O)N1CCC(N2CC(CC#N)(n3ccc(-c4ncnc5[nH]ccc45)c3)C2)CC1

output:
1. ≤ 10 nM
2. 10 to 50 nM
